# tgt: human Kv1.3 (human) (UniProt P22001)
# Sequence (P22001 whole entry): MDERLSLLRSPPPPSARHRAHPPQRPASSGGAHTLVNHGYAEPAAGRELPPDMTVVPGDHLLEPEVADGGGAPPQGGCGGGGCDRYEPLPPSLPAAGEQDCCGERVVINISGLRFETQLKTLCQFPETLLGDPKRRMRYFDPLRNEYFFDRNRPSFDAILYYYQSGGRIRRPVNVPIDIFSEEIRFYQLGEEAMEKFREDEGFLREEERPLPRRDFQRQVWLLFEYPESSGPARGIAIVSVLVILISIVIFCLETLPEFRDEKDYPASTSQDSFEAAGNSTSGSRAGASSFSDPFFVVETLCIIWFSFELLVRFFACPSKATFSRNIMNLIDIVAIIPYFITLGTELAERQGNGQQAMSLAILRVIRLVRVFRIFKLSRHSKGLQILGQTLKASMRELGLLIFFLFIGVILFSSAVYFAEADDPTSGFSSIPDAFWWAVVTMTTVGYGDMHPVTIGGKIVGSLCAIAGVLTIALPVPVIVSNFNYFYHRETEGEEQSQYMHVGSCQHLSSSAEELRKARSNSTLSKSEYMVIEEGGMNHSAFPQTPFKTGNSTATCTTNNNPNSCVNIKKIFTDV
# experimental_details: cell-based or functional assay
Hi there, I'd appreciate the recorded Kv1.3 IC50, QPatch patch clamp for every entry that follows.
The reply should contain only the number, in µM.

Lookup: Complete the entry with Kv1.3 IC50, QPatch patch clamp for KB_A12_HsTx1 R14A (antibody, V domains shown) VH: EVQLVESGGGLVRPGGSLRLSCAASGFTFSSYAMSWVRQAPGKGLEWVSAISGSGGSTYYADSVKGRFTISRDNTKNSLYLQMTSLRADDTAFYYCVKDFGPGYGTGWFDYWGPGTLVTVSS VL: NWYQQLPGKAPKLLIYAAGRASCRTPKDCADPCAKETGCPYGKCMNRKCKCNRCANSGVSDRFSAAKSGTSASLAINGLRSEDEADYYCAAWDDSLNGYVFGTGTKLTVLG
Found: 0.0009

Lookup: Complete the entry with Kv1.3 IC50, QPatch patch clamp for KB_A12_Odk2 (antibody, V domains shown) VH: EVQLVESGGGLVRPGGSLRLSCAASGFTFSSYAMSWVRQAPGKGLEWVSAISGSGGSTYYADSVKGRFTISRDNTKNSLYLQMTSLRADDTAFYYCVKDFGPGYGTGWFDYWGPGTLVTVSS VL: QSVLTQPPSVSEAPRQRVTITCSGSSSNIGNNAVNWYQQLPGKAPKLLIYAAGRGVPTDVKCRGSPQCIQPCKDAGMRFGKCMNGKCHCTPKANSGVSDRFSAAKSGTSASLAINGLRSEDEADYYCAAWDDSLNGYVFGTGTKLTVLG
Found: 0.457

Lookup: Complete the entry with Kv1.3 IC50, QPatch patch clamp for KB_A12_Vm24 (antibody, V domains shown) VH: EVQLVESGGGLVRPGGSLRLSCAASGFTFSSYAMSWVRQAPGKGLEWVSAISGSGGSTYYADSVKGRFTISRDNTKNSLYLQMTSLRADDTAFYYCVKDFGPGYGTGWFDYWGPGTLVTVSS VL: QSVLTQPPSVSEAPRQRVTITCSGSSSNIGNNAVNWYQQLPGKAPKLLIYAAGRAAAISCVGSPECPPKCRAQGCKNGKCMNRKCKCYYCANSGVSDRFSAAKSGTSASLAINGLRSEDEADYYCAAWDDSLNGYVFGTGTKLTVLG
Found: 0.012

Lookup: Complete the entry with Kv1.3 IC50, QPatch patch clamp for KB_A12_Odk2 short (antibody, V domains shown) VH: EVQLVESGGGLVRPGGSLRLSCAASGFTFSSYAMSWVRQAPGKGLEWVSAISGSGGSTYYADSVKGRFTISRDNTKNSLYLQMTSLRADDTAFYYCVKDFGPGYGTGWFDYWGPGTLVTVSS VL: NWYQQLPGKAPKLLIYAAGRVKCRGSPQCIQPCKDAGMRFGKCMNGKCHCTPKANSGVSDRFSAAKSGTSASLAINGLRSEDEADYYCAAWDDSLNGYVFGTGTKLTVLG
Found: 0.049
